reported-endpoint: melting point

[[record]]
molecule = "O=C(CC1(O)C(=O)N(Cc2ccc(Cl)cc2)c2ccccc21)c1ccc(F)cc1 (centres unmarked)"
result = "156 to 160 °C"

[[record]]
molecule = "O=C1N(Cc2ccc(Cl)cc2)c2ccccc2C1(O)c1ccc2c(c1)OC(F)(F)O2 (centres unmarked)"
result = "150 to 152 °C"

[[record]]
molecule = "O=C1N(CCCCCCl)c2ccccc2C1(O)c1ccc2c(c1)OCO2 (centres unmarked)"
result = "131 to 132 °C"


Record O=C1N(Cc2ccc(Cl)cc2)c2ccccc2C1(O)CC1OCCO1 (centres unmarked) . Reported melting point: 166 to 169 °C

Record CCCCCCN1C(=O)C(O)(c2ccc3c(c2)OCO3)c2ccccc21 (centres unmarked) . Reported melting point: 88 to 90 °C

----------
reported-endpoint: melting point

Record O=C(CC1(O)C(=O)N(CCc2ccc(Cl)cc2)c2ccccc21)c1ccco1 (centres unmarked) . Reported melting point: 128 to 132 °C

Record O=C1N(CCC2CC2)c2ccccc2C1(O)c1ccc2c(c1)OCO2 (centres unmarked) . Reported melting point: 110 to 112 °C

Record CC(c1ccccc1)N1C(=O)C(O)(c2ccc3c(c2)OCO3)c2ccccc21 (centres unmarked) . Reported melting point: 148 to 150 °C

Record CCCCCN1C(=O)C(c2ccc3c(c2)OCO3)c2c(Cl)ccc(Cl)c21 (centres unmarked) . Reported melting point: 84 to 86 °C

Record O=C1N(Cc2ccccn2)c2cccc(Br)c2C1(O)c1cc2c(cc1O)OCC2 (centres unmarked) . Reported melting point: > 225 °C

----------
melting point values for the compounds below.

Solved cases (4 shown):
[[record]]
compound = "COc1ccc(C2(O)C(=O)N(Cc3ccc(Cl)cc3)c3ccccc32)cn1 (centres unmarked)"
result = "182 to 184 °C"

[[record]]
compound = "CCCCCN1C(=O)C(NC(=O)OC(C)(C)C)c2ccccc21 (centres unmarked)"
result = "145 to 147 °C"

[[record]]
compound = "O=C(CC1(O)C(=O)N(Cc2ccc(Cl)cc2)c2ccccc21)c1ccc[nH]1 (centres unmarked)"
result = "202 °C (dec.)"

[[record]]
compound = "O=C1C(c2ccc3c(c2)OCO3)c2ccccc2N1CCC1CC1 (centres unmarked)"
result = "87 to 89 °C"


Record O=C1N(Cc2ccc(Cl)cc2)c2ccc(Br)cc2C1(O)c1ccc2c(c1)OCO2 (centres unmarked) . Reported melting point: 179 to 180 °C

----------
melting point values for the compounds below.

Solved cases (5 shown):
[[record]]
compound = "COc1ccc(CN2C(=O)C(O)(c3ccc4c(c3)OC(F)(F)O4)c3ccccc32)cc1 (centres unmarked)"
reported_endpoint = "melting point"
result = "88 to 90 °C"

[[record]]
compound = "O=C(c1ccc(Cl)cc1)N1C(=O)C(O)(c2ccccc2)c2ccccc21 (centres unmarked)"
reported_endpoint = "melting point"
result = "141 to 143 °C"

[[record]]
compound = "O=C1N(Cc2ccc(-n3cccc3)cc2)c2ccccc2C1(O)c1ccc2c(c1)OCO2 (centres unmarked)"
reported_endpoint = "melting point"
result = "195 to 198 °C"

[[record]]
compound = "O=C1N(Cc2ccc(Cl)cc2)c2ccccc2C1(O)c1ccc2ncsc2c1 (centres unmarked)"
reported_endpoint = "melting point"
result = "185 to 187 °C"

[[record]]
compound = "CCCCCN1C(=O)C(c2ccc3c(c2)OCO3)(c2cc3c(cc2O)OCO3)c2ccccc21 (centres unmarked)"
reported_endpoint = "melting point"
result = "75 to 76 °C"


Record O=C1N(Cc2ccccc2I)c2ccccc2C1(O)c1ccc2c(c1)OCO2 (centres unmarked) . Reported melting point: 130 to 132 °C

Record O=C(CC1(O)C(=O)N(Cc2ccc(Cl)cc2)c2ccccc21)c1ccccn1 (centres unmarked) . Reported melting point: 185 °C (dec.)

Record CCCCCN1C(=O)C(O)(c2ccc3c(c2)OCO3)c2cc(C)cc(C)c21 (centres unmarked) . Reported melting point: 120 to 121 °C

Record CCCCCN1C(=O)C(c2cc3c(cc2O)OCO3)c2ccccc21 (centres unmarked) . Reported melting point: 101 to 103 °C

Record CCCCC(C)N1C(=O)C(O)(c2ccc3c(c2)OCO3)c2ccccc21 (centres unmarked) . Reported melting point: 152 to 154 °C

Record CCCCCN1C(=O)C(O)(c2ccc3c(c2)OCO3)c2cccc(C(F)(F)F)c21 (centres unmarked) . Reported melting point: 115 to 117 °C

Record CCCCCN1C(=O)C(O)(c2cc3c(cc2CO)OCO3)c2ccccc21 (centres unmarked) . Reported melting point: 120 to 122 °C

Record O=C1N(Cc2cccs2)c2ccccc2C1(O)c1ccc2c(c1)OCO2 (centres unmarked) . Reported melting point: 141 to 142 °C

Record O=C1N(Cc2ccc3c(c2)OCO3)c2ccccc2C1(O)c1ccc2ccoc2c1 (centres unmarked) . Reported melting point: > 200 °C

Record O=C1N(Cc2ccc(C(F)(F)F)o2)c2ccc(F)cc2C1(CO)c1cc2c(cc1O)OCO2 (centres unmarked) . Reported melting point: 92 to 95 °C

----------
melting point values for the molecules below.

Solved cases (4 shown):
[[record]]
molecule = "COc1ccc2c(c1)C(O)(c1ccc3c(c1)OCO3)C(=O)N2Cc1ccc(F)cc1 (centres unmarked)"
result = "127 to 129 °C"

[[record]]
molecule = "COc1ccccc1CN1C(=O)C(O)(c2ccc3c(c2)OCO3)c2ccccc21 (centres unmarked)"
result = "148 to 150 °C"

[[record]]
molecule = "CCCCCN1C(=O)C(O)(c2ccc3c(c2)OCO3)c2c(Cl)ccc(Cl)c21 (centres unmarked)"
result = "82 to 84 °C"

[[record]]
molecule = "CC(C)CCN1C(=O)C(O)(c2ccc3c(c2)OCO3)c2ccccc21 (centres unmarked)"
result = "129 to 131 °C"


Now take the following molecule into account.
Record O=C1N(Cc2ccc(Cl)cc2)c2ccccc2C1(O)c1ccc2c(c1)OCCCO2 (centres unmarked) . Reported melting point: 188 to 190 °C

----------
reported-endpoint: melting point

Solved cases (5 shown):
[[record]]
molecule = "O=C1C(c2ccc3c(c2)OCO3)c2ccccc2N1Cc1ccc(Cl)cc1 (centres unmarked)"
reported_endpoint = "melting point"
result = "161 to 163 °C"

[[record]]
molecule = "O=C1N(Cc2ccc(Cl)cc2)c2ccccc2C1(O)C#Cc1ccc(F)cc1 (centres unmarked)"
reported_endpoint = "melting point"
result = "153 to 154 °C"

[[record]]
molecule = "O=C1N(Cc2ccc(Cl)c(C(F)(F)F)c2)c2ccccc2C1(O)c1ccc2c(c1)OCO2 (centres unmarked)"
reported_endpoint = "melting point"
result = "133 to 135 °C"

[[record]]
molecule = "CCCCCN1C(=O)C(CO)(c2cc3c(cc2O)OCO3)c2ccccc21 (centres unmarked)"
reported_endpoint = "melting point"
result = "125 to 127 °C"

[[record]]
molecule = "O=C1N(CC2CC2)c2ccccc2C1(O)c1ccc2c(c1)OCO2 (centres unmarked)"
reported_endpoint = "melting point"
result = "142 to 145 °C"


Now take the following molecule into account.
Record O=C(CC1(O)C(=O)N(Cc2ccc3c(c2)OCO3)c2ccccc21)c1ccco1 (centres unmarked) . Reported melting point: 175 to 177 °C

----------
melting point values for the molecules below.

Solved cases (3 shown):
[[record]]
molecule = "CCCCCN1C(=O)C(O)(c2ccc3c(c2)OCO3)c2ccc(Cl)cc21 (centres unmarked)"
result = "103 to 105 °C"

[[record]]
molecule = "O=C1N(Cc2cccc3cccnc23)c2ccccc2C1(O)c1ccc2c(c1)OCO2 (centres unmarked)"
result = "187 to 189 °C"

[[record]]
molecule = "O=C1Nc2c(-c3ccc4c(c3)OCO4)cccc2C1(O)c1ccc2c(c1)OCO2 (centres unmarked)"
result = "112 to 115 °C"


Record O=C1N(Cc2ccc(Cl)cc2)c2ccccc2C1(O)c1ccc2ccoc2c1 (centres unmarked) . Reported melting point: > 200 °C (dec.)

Record O=C1N(Cc2ccc(Cl)cc2)c2ccccc2C1(O)c1cncnc1 (centres unmarked) . Reported melting point: 155 to 157 °C

Record O=C1N(Cc2ccc(Cl)cc2)c2ccc(F)cc2C1(O)c1ccc2c(c1)OCO2 (centres unmarked) . Reported melting point: 145 to 147 °C

Record O=C(CC1(O)C(=O)N(Cc2ccc3c(c2)OCO3)c2ccccc21)c1cccs1 (centres unmarked) . Reported melting point: 186 to 187 °C

Record CCCCCN1C(=O)C(O)(c2ccc3c(c2)OCO3)c2c(Cl)cccc21 (centres unmarked) . Reported melting point: 140 to 142 °C

----------
melting point values for the compounds below.

Solved cases (5 shown):
[[record]]
compound = "CCCCCN1C(=O)C(c2ccc3c(c2)OCO3)c2cc(C)cc(C)c21 (stereo not drawn)"
result = "111 to 114 °C"

[[record]]
compound = "CCCCCN1C(=O)C(c2ccc3c(c2)OCO3)c2cccc(F)c21 (stereo not drawn)"
result = "95 to 97 °C"

[[record]]
compound = "O=C1N(Cc2ccc(Cl)cc2)c2ccc(OC(F)(F)F)cc2C1(O)c1ccc2c(c1)OCO2 (stereo not drawn)"
result = "138 to 140 °C"

[[record]]
compound = "O=C1N(Cc2cc3c(cc2Cl)OCO3)c2ccccc2C1(O)c1ccc2c(c1)OCO2 (stereo not drawn)"
result = "153 to 155 °C"

[[record]]
compound = "O=C1N(Cc2ccc(Cl)s2)c2ccccc2C1(O)c1ccc2c(c1)OCO2 (stereo not drawn)"
result = "164 to 165 °C"


Record COc1ccc(C2(O)C(=O)N(Cc3ccc(Cl)cc3)c3ccccc32)cc1OC (stereo not drawn) . Reported melting point: 155 to 158 °C

Record O=C1N(Cc2ccc(Cl)cc2)c2ccccc2C1(O)c1cc(OCc2ccccc2)ccc1O (stereo not drawn) . Reported melting point: 172 to 175 °C

Record CCCCCN1C(=O)C(O)(c2ccc3c(c2)OCO3)c2cccc(-c3ccc(F)cc3)c21 (stereo not drawn) . Reported melting point: 149 to 151 °C

Record CCCCCN1C(=O)C(O)(c2ccc3c(c2)OCO3)c2cccc(F)c21 (stereo not drawn) . Reported melting point: 102 to 104 °C
